The measurements presented in this section are drawn from paper PMC10814725.

# experiment-description: Cytotoxic effects against RAW264.7 macrophage (cell viability)
# Type: cell-based
# assay-conditions: mouse, RAW264.7 macrophages; 5 µM; read-out: Viability cell (%) RAW 264.7 5 µM
readout-type: viability at 5 µM (%)

>>> numeric_readout("CC(=O)O[C@H]1[C@@H](OC(C)=O)[C@]2(C)[C@H](CCC3=C(c4ccoc4)C[C@@H](O)[C@]32C)[C@@]2(C)C=CC(=O)C(C)(C)[C@H]12")
89.5
>>> numeric_readout("COc1cc([C@@H]2c3cc4c(cc3[C@@H](O[C@@H]3O[C@@H]5CO[C@@H](C)O[C@H]5[C@H](O)[C@H]3O)[C@H]3COC(=O)[C@H]23)OCO4)cc(OC)c1O [Etoposide, reference compound]")
67.5

* * *

# experiment-description: Cell viability by CCK-8, HEK-Blue hTLR4 cells
# Type: cell-based
# assay-conditions: human, HEK-Blue hTLR4 cells, 20 µM, 18 h, LPS 10 ng/mL; read-out: Viability Cell (%) HEK-Blue hTLR4 LPS-Induced (10 ng/mL)
# Experimental: The viability of HEK-Blue^TM hTLR4, […], and THP-1 cells was evaluated using the Dojindo Cell Counting Kit-8 (CCK-8) according to the manufacturer’s instructions. The viability of HEK-Blue^TM hTLR4 and THP-1 cells was assessed under identical conditions to the corresponding assay treatments. […] After 18 h of incubation, a 10% (v/v) CCK-8 solution was added to each well and incubated at 37 °C for 1 h, and cell viability was calculated.
readout-type: viability at 18 h, 20 µM

>>> result("CC(=O)O[C@H]1[C@@H](OC(C)=O)[C@]2(C)[C@H](CCC3=C(c4ccoc4)C[C@@H](O)[C@]32C)[C@@]2(C)C=CC(=O)C(C)(C)[C@H]12")
"88%"

* * *

viability at 10 µM reference
# experiment-description: in vitro
# Format: cell-based
# assay-conditions: mouse
readout-type: viability at 10 µM

>>> result("C[C@]12C3=CC[C@@H](c4ccoc4)[C@]3(C)CC[C@@H]1[C@@]1(C)C(=O)C=C[C@@]3(C)CO[C@@H]([C@H]2O)[C@H]13")
"> 99.9%"
>>> result("CC1(C)C(=O)C=CC2(C)C1=C(O)C(=O)C1(C)C2(O)C(O)CC2(C)C(c3ccoc3)CC3OC321 (stereo not drawn)")
"72.2%"
>>> result("CC(=O)O[C@@H]1[C@H](O)[C@H]2C(C)(C)C(=O)C=C[C@]2(C)[C@H]2CC[C@]3(C)C(=CC[C@H]3c3ccoc3)[C@]12C")
"89.9%"

* * *

Recorded measurements of viability at 10 µM, one per entry
# experiment-description: in vitro
# Type: cell-based
# assay-conditions: mouse
readout-type: viability at 10 µM

>>> result("CC1(C)C(=O)C=C[C@]2(C)[C@H]3CC[C@]4(C)C(C(=O)C[C@H]4c4ccoc4)[C@]3(C)[C@H](O)C[C@@H]12 (stereo partly drawn) [Compound 1, 7α-hydroxyneotrichilenone]")
"> 99.9%"
>>> result("CC(=O)O[C@H]1[C@@H](OC(C)=O)[C@@]2(C)C3C(=O)C[C@@H](c4ccoc4)[C@]3(C)CC[C@@H]2[C@@]2(C)C=CC(=O)C(C)(C)[C@H]12 (stereo partly shown) [Compound 7, toonaciliatone F]")
"> 99.9%"
>>> result("CC(=O)O[C@@H]1C[C@H]2C(C)(C)C(=O)C=C[C@]2(C)[C@H]2CC[C@]3(C)C(C(=O)C[C@H]3c3ccoc3)[C@@]21C (stereo partly drawn) [Compound 2, 7α-acetylneotrichilenone]")
"> 99.9%"
>>> result("CC(=O)O[C@@H]1C[C@H]2C(C)(C)C(=O)C=C[C@]2(C)[C@H]2CC[C@@]3(C)[C@H](c4ccoc4)C[C@H]4O[C@]43[C@@]21C [Compound 13, trichilenone acetate]")
"> 99.9%"
